# maps each entry to its growth
tested on: LOX IMVI melanoma; experiment: NCI-60 one-dose screen, 48 h (100 = growth as untreated, 0 = no growth, -100 = all killed); conditions: 10 µM unless noted
The panel holds about 83,000 compounds, 20% with a hit somewhere; the sample as a whole holds those more often.

molecule	growth, %
CN(C)CC1CCCCCC(CN(C)C)C1=O (centres undefined)	81.3
COc1ccc(N/C=C/C2=[N+](C)c3ccccc3C2(C)C)c(OC)c1	96
CC1(C)COC(=S)N1	99.9
OCC1OC(O)C(O)C(O)C1O (centres undefined)	100
CC1CCC(C(C)C)C(NNC(N)=O)C1 (centres undefined)	100
c1ccc2c(c1)OC1OC2Oc2ccccc21	91.1
CCCCCCCCCCCCCCCc1ccc(N)c(OC2OC(CO)C(O)C(O)C2O)c1 (centres undefined)	86.3
COc1cc(C(O)C2C(=O)OCC2C2(c3ccc4c(c3)OCO4)SCCCS2)cc(OC)c1OC (centres undefined)	92.1
O=C1C=C(Nc2ccccc2)c2ccccc2C1=O	71.6
Cl	97
NC(=O)NCCCC(N)C(=O)O (centres undefined)	67.6
COc1ccc2cc1Oc1ccc(cc1)C[C@H]1c3cc(c(OC)cc3CCN1C)Oc1c(OC)c(OC)cc3c1[C@H](C2)N(C)CC3	-43.7
c1ccc(-c2nc3ccccc3s2)cc1	88.5
CCCCOC(=O)/C=C\C(=O)NC(N)=O	79.1
Fc1ccc([I+]c2ccc(F)cc2)cc1	47.9
Nc1ncnc2c1ncn2C1OC(COP(=O)(O)O)C(O)C1O (centres undefined)	108
CC(C)(O)C(=O)O	101
CC1CCC2(OC1)OC1CC3C4CC=C5CC(O)CCC5(C)C4CCC3(C)C1C2C (centres undefined)	91.2
C/C(=C\c1ccccc1)c1ccccn1	112
Oc1ccc(Cc2ccccc2Cl)c(O)c1	86.3
O=CN1CCCCC1	96.6
CC(C)NC(=O)N/C=C(\C#N)C(N)=O	97.2
CC1=C/C(O)CC(=O)Cc2nc(co2)C(=O)N2CCC=C2C(=O)OC(C(C)C)C(C)/C=C\C(=O)NC/C=C\1 (centres undefined)	59.6
O=C(O)CCCl	104
Cc1ccc(S(=O)(=O)c2ccccc2)cc1	21
Nc1cc(N)c(N)cc1N	-93.8
C#CCOC(=O)Nc1ccccc1	99.2
CCCCCCCCCCNC(=O)CI	-73.2
CC(C)C(C)(C)c1ccc(O)cc1	98.4

These measurements were taken from PubChem BioAssay (NCI).
